- System: SNU-C5
- EXPERIMENT_SUMMARY: alamarBlue cell viability (survival rate, IC50), SNU-C5
- Assay type: cell-based
- CONDITION_NOTES: SNU-C5 (colorectal cancer), compound 10 µM, 48 hours
RECORDED_METRIC: Cancer cell line survival rate (%)
Answers are plain numbers, in %.

Check out these entries, answers already filled in.
[
  {
    "MOLECULE": "C=CCc1cc(OC)c(O[C@H](C)[C@H](c2ccc(O)c(OC)c2)c2ccc(O)c(C(=O)CCCCCCCCc3ccc(O)cc3)c2O)c(OC)c1",
    "Cancer cell line survival rate (%)": 2.11
  },
  {
    "MOLECULE": "C/C=C/c1ccc(O[C@H](C)[C@H](c2ccc(O)c(OC)c2)c2ccc(O)c(C(=O)CCCCCCCCc3ccc(O)c(O)c3)c2O)c(OC)c1 (relative stereo)",
    "Cancer cell line survival rate (%)": 4.41
  },
  {
    "MOLECULE": "C=CCc1cc(OC)c(O[C@H](C)[C@H](c2ccc(O)c(OC)c2)c2ccc(O)c(C(=O)CCCCCCCCc3ccc(O)c(O)c3)c2O)c(OC)c1 [Compound 1, Myricone A or Myrifragranone B, reference compound]",
    "Cancer cell line survival rate (%)": 8.73
  }
]

Read the next record carefully.
Given "C=CCc1cc(OC)c(O[C@H](C)[C@@H](c2ccc(O)c(OC)c2)c2ccc(O)c(C(=O)CCCCCCCCc3ccc(O)cc3)c2O)c(OC)c1" , respond with its Cancer cell line survival rate (%).
12.41

###

Please go through the items and note down their viability at 10 µM.
- Test system: SNU201
- EXPERIMENT_SUMMARY: alamarBlue cell viability (survival rate), SNU201
- Format: cell-based
- CONDITION_NOTES: SNU201 (glioblastoma), compound 10 µM, 48 hours; read-out: Cancer cell line survival rate (%)
Answers are plain numbers, in %.

Check out these entries, answers already filled in.
[
  {
    "MOLECULE": "C=CCc1cc(OC)c(OC(C)C(Oc2cccc(O)c2C(=O)CCCCCCCCc2ccc(O)cc2)c2ccc(O)c(OC)c2)c(OC)c1 (stereo not drawn)",
    "MEASURED_ON": "SNU201",
    "UNIT_DESCRIPTOR": "%",
    "viability at 10 µM": 0.75
  },
  {
    "MOLECULE": "COc1cc([C@H]2Oc3c(OC)cc(/C=C/Cc4ccc(O)c(C(=O)CCCCCCCCc5ccc(O)c(O)c5)c4O)cc3[C@@H]2C)ccc1O",
    "MEASURED_ON": "SNU201",
    "UNIT_DESCRIPTOR": "%",
    "viability at 10 µM": 107
  },
  {
    "MOLECULE": "C=CCc1cc(OC)c(O[C@H](C)[C@@H](c2ccc(O)c(OC)c2)c2ccc(O)c(C(=O)CCCCCCCCc3ccc(O)c(O)c3)c2O)c(OC)c1",
    "MEASURED_ON": "SNU201",
    "UNIT_DESCRIPTOR": "%",
    "viability at 10 µM": 1.43
  },
  {
    "MOLECULE": "COc1cc(CC(C)C(C)C(c2ccc(O)c(OC)c2)c2ccc(O)c(C(=O)CCCCCCCCc3ccc(O)c(O)c3)c2O)ccc1O (stereo not drawn)",
    "MEASURED_ON": "SNU201",
    "UNIT_DESCRIPTOR": "%",
    "viability at 10 µM": 31.4
  }
]

Record viability at 10 µM for all entries; do not skip any.
1. COc1cc(C(c2ccc(O)c(C(=O)CCCCCCCCc3ccc(O)c(O)c3)c2O)C(C)C(C)Cc2ccc3c(c2)OCO3)ccc1O (stereo not drawn)
2. C=CCc1cc(OC)c(O[C@@H](C)[C@H](Oc2cc(CCCCCCCCC(=O)c3c(O)cccc3O)ccc2O)c2ccc(O)c(OC)c2)c(OC)c1
3. COc1ccc(/C=C/Cc2ccc(O)c(C(=O)CCCCCCCCc3ccc(O)c(O)c3)c2O)cc1OC
4. COc1cc([C@H]2Oc3c(OC)cc(/C=C/Cc4cc(O)c(O)cc4CCCCCCCCC(=O)c4c(O)cccc4O)cc3[C@@H]2C)ccc1O
5. C=CCc1cc(OC)c(O[C@H](C)[C@H](c2ccc(O)c(OC)c2)c2cc(O)c(O)cc2CCCCCCCCC(=O)c2c(O)cccc2O)c(OC)c1
6. C=CCc1cc(OC)c(O[C@H](C)[C@H](Oc2cc(CCCCCCCCC(=O)c3c(O)cccc3O)ccc2O)c2ccc(O)c(OC)c2)c(OC)c1
7. C=CCc1ccc(O[C@H](C)[C@H](c2ccc(O)c(OC)c2)c2ccc(O)c(C(=O)CCCCCCCCc3ccc(O)c(O)c3)c2O)c(OC)c1
8. COc1cc([C@H]2Oc3c(OC)cc(/C=C/Cc4c(CCCCCCCCC(=O)c5c(O)cccc5O)ccc(O)c4O)cc3[C@@H]2C)ccc1O

1. 101
2. 3.28
3. 67.8
4. 105
5. 1.4
6. 32.8
7. 0.61
8. 104

Values compiled from patent EP4790046A1.
